Tested on: CCRIS mutagenicity, Ames/micronucleus/aberration tests
ASSAY_PROTOCOL: CCRIS mutagenicity studies
RUN_PARAMETERS: Test System: AMES SALMONELLA TYPHIMURIUM; Strain/Indicator: TA98; Metabolic Activation: NONE; Method: PREINCUBATION
Activity calls are given as the source filed them. How the calls were made is not given here.
Classes to choose from: true (1) for active, false (0) for inactive

Reference set, count: 5
[[record]]
compound = "O=C1C(=O)c2ccccc2-c2ccccc21"
label = "false (0)"

[[record]]
compound = "Nc1c2ccccc2nc2ccccc12"
label = "false (0)"

[[record]]
compound = "C[C@]12CCC(=O)C=C1[C@@H]1C[C@@H]1[C@H]1[C@@H]3[C@@H]4C[C@@H]4[C@@]4(CCC(=O)O4)[C@@]3(C)CC[C@@H]12"
label = "false (0)"

[[record]]
compound = "CC(C)(C)C1=CC(=O)C=C(C2=CC(=O)C=C(C(C)(C)C)C2=O)C1=O"
label = "true (1)"

[[record]]
compound = "Cc1cccc([N+](=O)[O-])c1C"
label = "false (0)"


Query: I'd appreciate the recorded outcome for C[C@]12CC[C@@H]3c4ccc(O)cc4CC[C@H]3[C@@]13CC[C@]2(O)[C@H](O)C3 from this test.
Result: false (0)

Query: I'd appreciate the recorded outcome for CCOC(=O)c1cc(Cc2ccc(N)c(C(=O)OCC)c2)ccc1N from this test.
Result: false (0)

====

System: CCRIS mutagenicity, Ames/micronucleus/aberration tests
ASSAY_PROTOCOL: CCRIS mutagenicity studies
RUN_PARAMETERS: Test System: AMES SALMONELLA TYPHIMURIUM; Strain/Indicator: TA98; Metabolic Activation: NONE; Method: PREINCUBATION
Active and inactive are the calls of the source. No rule for the calls is given here.
Classes to choose from: TRUE = active, FALSE = inactive

[[record]]
compound = "FC(F)(F)c1ccccc1Cl"
label = "FALSE"


Query: I'd appreciate the recorded outcome for O=[N+]([O-])c1ccccc1CO from this test.
Result: FALSE

Query: I'd appreciate the recorded outcome for Clc1c(Cl)c(Cl)c2c(c1Cl)Oc1c(Cl)c(Cl)c(Cl)c(Cl)c1O2 from this test.
Result: FALSE

Query: I'd appreciate the recorded outcome for Nc1c(Cl)cc([N+](=O)[O-])cc1[N+](=O)[O-] from this test.
Result: TRUE

====

System: CCRIS mutagenicity, Ames/micronucleus/aberration tests
ASSAY_PROTOCOL: CCRIS mutagenicity studies
RUN_PARAMETERS: Test System: AMES SALMONELLA TYPHIMURIUM; Strain/Indicator: TA100; Metabolic Activation: NONE; Method: PREINCUBATION
Calls of active or inactive are those of the source. The rule behind the calls is not given here.
Classes to choose from: YES (active), NO (inactive)

Reference set, count: 5
[[record]]
chemical_string = "O=P(OC(CCl)CCl)(OC(CCl)CCl)OC(CCl)CCl"
label = "NO"

[[record]]
chemical_string = "C=C1C/C(=C/C)C(=O)O[C@@H]2CCN3CC=C(COC(=O)[C@]1(C)O)[C@H]23"
label = "NO"

[[record]]
chemical_string = "Nc1c(Cl)cc([N+](=O)[O-])cc1[N+](=O)[O-]"
label = "YES"

[[record]]
chemical_string = "Cc1c(C(C)C)c(=O)n(-c2ccccc2)n1C"
label = "NO"

[[record]]
chemical_string = "CC(C)(C)C1=CC(=O)C=C(C2=CC(=O)C=C(C(C)(C)C)C2=O)C1=O"
label = "YES"


Query: I'd appreciate the recorded outcome for CC(=O)OCc1ccco1 from this test.
Result: YES

Query: I'd appreciate the recorded outcome for CC(C)C(C)(C)C(C)(C)C(C)(C)S from this test.
Result: NO

Query: I'd appreciate the recorded outcome for O[C@H]1[C@@H]2O[C@@H]2C=C[C@@H]1O from this test.
Result: NO

====

Tested on: CCRIS mutagenicity, Ames/micronucleus/aberration tests
ASSAY_PROTOCOL: CCRIS mutagenicity studies
RUN_PARAMETERS: Test System: AMES SALMONELLA TYPHIMURIUM; Strain/Indicator: TA100; Metabolic Activation: NONE; Method: PREINCUBATION
Calls of active or inactive are those of the source. No rule for the calls is given here.
Classes to choose from: class 1 = active, class 0 = inactive

[[record]]
compound = "Oc1c2c(c3c(ccc4c3ccc3ccc5ccccc5c34)c1O)O2"
label = "class 1"

[[record]]
compound = "C=CC(=O)NCO"
label = "class 0"

[[record]]
compound = "O=NN(CC(=O)O)CC(=O)O"
label = "class 1"

[[record]]
compound = "O=S1OCC2C(CO1)C1(Cl)C(Cl)=C(Cl)C2(Cl)C1(Cl)Cl (stereo unspecified)"
label = "class 0"

[[record]]
compound = "CC/C=C/C=C/C=C/C=C/C=C/OCC(O)c1ccccc1 (stereo unspecified)"
label = "class 1"

[[record]]
compound = "Nc1ccc(F)cc1F"
label = "class 0"

[[record]]
compound = "Nc1ccc(CO)c([N+](=O)[O-])c1"
label = "class 1"

[[record]]
compound = "c1ccc(COCc2ccccc2)cc1"
label = "class 0"

[[record]]
compound = "CC(=O)OC(C)=O"
label = "class 0"

[[record]]
compound = "CC1(C)SSC[C@@H](C(=O)O)NC1=O"
label = "class 0"


Query: I'd appreciate the recorded outcome for O=c1[nH]c(=O)n([C@H]2C[C@H](O)[C@@H](CO)O2)cc1CCCCl from this test.
Result: class 0

Query: I'd appreciate the recorded outcome for Cc1cc(O)c2c(c1)C(=O)c1cccc(O)c1C2=O from this test.
Result: class 0

Query: I'd appreciate the recorded outcome for O=C1c2ccccc2C(=O)c2c(O)ccc(O)c21 from this test.
Result: class 0

Query: I'd appreciate the recorded outcome for Cc1cccc(C(=O)Cl)c1 from this test.
Result: class 0

Query: I'd appreciate the recorded outcome for Oc1c(Cl)c(Cl)cc(Cl)c1Cl from this test.
Result: class 0

Query: I'd appreciate the recorded outcome for Cc1ccc(NO)c(C)c1 from this test.
Result: class 1

Query: I'd appreciate the recorded outcome for CCOCn1cc(F)c(=O)n(C(=O)c2cccc(C(=O)Oc3nc(OC(=O)c4ccccc4)ccc3C#N)c2)c1=O from this test.
Result: class 0

Query: I'd appreciate the recorded outcome for Oc1ccc(O)c(O)c1 from this test.
Result: class 0

====

Test system: CCRIS mutagenicity, Ames/micronucleus/aberration tests
ASSAY_PROTOCOL: CCRIS mutagenicity studies
RUN_PARAMETERS: Test System: AMES SALMONELLA TYPHIMURIUM; Strain/Indicator: TA97; Metabolic Activation: NONE; Method: STANDARD PLATE
Active and inactive are the calls of the source. No rule for the calls is given here.
Classes to choose from: active, inactive

[[record]]
molecule = "C=CCc1ccc2c(c1)OCO2"
label = "inactive"

[[record]]
molecule = "Nc1ccc2nc3ccccn3c2n1"
label = "inactive"

[[record]]
molecule = "Oc1ccc(O)cc1"
label = "inactive"

[[record]]
molecule = "CC1(C)[C@H](C=C(Cl)Cl)[C@H]1C(=O)OCc1cccc(Oc2ccccc2)c1"
label = "inactive"

[[record]]
molecule = "CC1(C)C(C=C(Cl)Cl)C1C(=O)OC(C#N)c1cccc(Oc2ccccc2)c1 (stereo not given)"
label = "inactive"


Please find the next molecule below.
Query: I'd appreciate the recorded outcome for ClC(Cl)=C(c1ccc(Cl)cc1)c1ccc(Cl)cc1 from this test.
Result: inactive

====

Test system: CCRIS mutagenicity, Ames/micronucleus/aberration tests
ASSAY_PROTOCOL: CCRIS mutagenicity studies
RUN_PARAMETERS: Test System: AMES SALMONELLA TYPHIMURIUM; Strain/Indicator: TA2638; Metabolic Activation: RAT LIVER S-9, PHENOBARBITAL AND 5,6-BENZOFLAVONE; Method: STANDARD PLATE
Calls of active or inactive are those of the source. No rule for the calls is given here.
QUANTITY_MEASURED: mutagenic call

[[record]]
compound = "C=CCc1ccc2c(c1)OCO2"
study_system = "CCRIS mutagenicity, Ames/micronucleus/aberration tests"
reported_measurement = "inactive; negative"

[[record]]
compound = "CC(N)=S"
study_system = "CCRIS mutagenicity, Ames/micronucleus/aberration tests"
reported_measurement = "inactive; negative"

[[record]]
compound = "O=C(c1ccccc1)C(O)c1ccccc1 (centres undefined)"
study_system = "CCRIS mutagenicity, Ames/micronucleus/aberration tests"
reported_measurement = "inactive; negative"

[[record]]
compound = "CCCCC(CC)COC(=O)c1ccccc1C(=O)OCC(CC)CCCC (centres undefined)"
study_system = "CCRIS mutagenicity, Ames/micronucleus/aberration tests"
reported_measurement = "inactive; negative"


====

System: CCRIS mutagenicity, Ames/micronucleus/aberration tests
ASSAY_PROTOCOL: CCRIS mutagenicity studies
RUN_PARAMETERS: Test System: AMES SALMONELLA TYPHIMURIUM; Strain/Indicator: TA98; Metabolic Activation: NONE; Method: PREINCUBATION
Activity calls are given as the source filed them. The rule behind the calls is not given here.
Classes to choose from: label 1 = active, label 0 = inactive

Reference set, count: 6
[[record]]
compound = "C=C(C)C(=O)OCCCC"
label = "label 0"

[[record]]
compound = "CCCCCCCCCC(=O)O"
label = "label 0"

[[record]]
compound = "Nc1ccccn1"
label = "label 0"

[[record]]
compound = "Cc1c(C(C)C)c(=O)n(-c2ccccc2)n1C"
label = "label 0"

[[record]]
compound = "O=S1OCC2C(CO1)C1(Cl)C(Cl)=C(Cl)C2(Cl)C1(Cl)Cl (centres undefined)"
label = "label 0"

[[record]]
compound = "Oc1ccccc1O"
label = "label 0"


Query: I'd appreciate the recorded outcome for c1ccc2cc3ccccc3cc2c1 from this test.
Result: label 0

Query: I'd appreciate the recorded outcome for Nc1ccc2ccccc2c1N=Nc1ccc([N+](=O)[O-])cc1 from this test.
Result: label 1

Query: I'd appreciate the recorded outcome for C[C@](N)(Cc1ccc(O)c(O)c1)C(=O)O from this test.
Result: label 0

Query: I'd appreciate the recorded outcome for Cc1cccc2c3c(c4cc5ccccc5cc4c12)N3 from this test.
Result: label 1

Query: I'd appreciate the recorded outcome for C[C@]1(Cn2ccnn2)[C@H](C(=O)O)N2C(=O)C[C@H]2S1(=O)=O from this test.
Result: label 0

Query: I'd appreciate the recorded outcome for O=C1c2ccccc2-c2ccc3c4c(ccc1c24)-c1ccccc1C3=O from this test.
Result: label 0

Query: I'd appreciate the recorded outcome for CCCCNC(=O)n1c(NC(=O)OC)nc2ccccc21 from this test.
Result: label 0

Query: I'd appreciate the recorded outcome for [Cl][Sb]([Cl])([Cl])([Cl])[Cl] from this test.
Result: label 0

Query: I'd appreciate the recorded outcome for CC(=O)Nc1ccc(S(N)(=O)=O)cc1 from this test.
Result: label 0

Query: I'd appreciate the recorded outcome for CCC/C=C(/C=O)CC from this test.
Result: label 0

Query: I'd appreciate the recorded outcome for CC(=O)CCC(C)=O from this test.
Result: label 0

Query: I'd appreciate the recorded outcome for N.N.[Br-].[Br-].[Pt+2] from this test.
Result: label 1

Query: I'd appreciate the recorded outcome for Cc1cc(=O)oc2cc(O)cc(O)c12 from this test.
Result: label 0

Query: I'd appreciate the recorded outcome for CC(=O)OC(C)=O from this test.
Result: label 0

Query: I'd appreciate the recorded outcome for CCc1cccc(CC)c1NC(C)=O from this test.
Result: label 0

Query: I'd appreciate the recorded outcome for CSSC from this test.
Result: label 0

Query: I'd appreciate the recorded outcome for COC(=O)/C=C/c1ccc([N+](=O)[O-])o1 from this test.
Result: label 1

Query: I'd appreciate the recorded outcome for O=c1[nH]c(=O)n([C@H]2C[C@H](O)[C@@H](CO)O2)cc1CCCl from this test.
Result: label 0
